Test system: AncSZ
Test: phosphorylation enrichment, bacterial display (enrichment ratio); higher = better substrate or ligand; peptides without Tyr show the background;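 note: 11-residue human phosphosite peptides and single-mutation variants displayed on the E. coli surface, counted by deep sequencing, each peptide's frequency after selection divided by its frequency in the unselected input library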;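 note: frequency after pTyr selection over input frequency; kinase dosed for 20-30% of maximal phosphorylation in three min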
MEASURED PARAMETER: phosphorylation enrichment

# SEQUENCE ENTRY, REPORTED RESULT
data = [
    ("YTHSDYQYSQR [PKP2_Y166]", 0.892),
    ("AAVNGYAFGGG [ECHS1_Y137]", 0.495),
    ("LRRFIYRPPDR [OTOF_Y1231]", 0.825),
    ("FPKDVYVDSKD [NDUFAF4_Y69_L65P]", 0.868),
    ("TFEYRYLEDRD [CNOT3_Y746]", 1.16),
]

----------
Target: FGFR3 (UniProt P22607)
Sequence (P22607 whole entry, looked up): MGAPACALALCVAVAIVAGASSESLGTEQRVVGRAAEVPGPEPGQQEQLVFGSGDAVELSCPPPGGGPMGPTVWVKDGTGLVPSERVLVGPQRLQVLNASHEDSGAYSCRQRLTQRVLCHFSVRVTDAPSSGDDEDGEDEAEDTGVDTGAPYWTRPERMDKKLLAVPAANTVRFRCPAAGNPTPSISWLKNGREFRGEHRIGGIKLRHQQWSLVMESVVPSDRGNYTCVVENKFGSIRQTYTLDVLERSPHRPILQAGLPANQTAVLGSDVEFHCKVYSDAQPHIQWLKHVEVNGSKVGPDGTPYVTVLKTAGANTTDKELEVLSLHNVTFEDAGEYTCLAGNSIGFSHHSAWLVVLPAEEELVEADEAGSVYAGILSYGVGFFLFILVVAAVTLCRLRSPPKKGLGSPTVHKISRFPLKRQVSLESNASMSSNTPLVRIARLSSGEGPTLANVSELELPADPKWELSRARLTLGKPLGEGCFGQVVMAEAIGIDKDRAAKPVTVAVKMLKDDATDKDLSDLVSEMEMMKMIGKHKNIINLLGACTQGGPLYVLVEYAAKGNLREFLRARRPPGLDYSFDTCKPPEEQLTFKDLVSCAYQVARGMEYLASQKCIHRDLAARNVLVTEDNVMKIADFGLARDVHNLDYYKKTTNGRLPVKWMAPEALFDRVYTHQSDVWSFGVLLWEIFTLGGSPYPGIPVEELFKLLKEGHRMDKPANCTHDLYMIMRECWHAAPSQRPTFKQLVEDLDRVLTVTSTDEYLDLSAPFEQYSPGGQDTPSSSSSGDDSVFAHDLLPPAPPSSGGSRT
Assay: phosphorylation enrichment, bacterial display (enrichment ratio); higher = better substrate or ligand; peptides without Tyr show the background
// reported phosphorylation enrichment per item
MEASURED PARAMETER: phosphorylation enrichment

# SEQUENCE ENTRY, TARGET SYSTEM, MEASURED PARAMETER, REPORTED RESULT
records = [
    ("IINENYDYLKG [NUP98_Y1664]", "FGFR3 (UniProt P22607)", "phosphorylation enrichment", 0.518),
    ("ELTAKYLNYYR [P3H4_Y181_Q186R]", "FGFR3 (UniProt P22607)", "phosphorylation enrichment", 0.541),
    ("RGSQQYRALTV [TUBB8_Y281]", "FGFR3 (UniProt P22607)", "phosphorylation enrichment", 0.364),
    ("DTKPAYQNLRQ [BOD1_Y82]", "FGFR3 (UniProt P22607)", "phosphorylation enrichment", 0.452),
    ("KNCFKYYMSDD [ATRX_Y203]", "FGFR3 (UniProt P22607)", "phosphorylation enrichment", 1.01),
    ("DNPAKYFILES [DPP10_Y512]", "FGFR3 (UniProt P22607)", "phosphorylation enrichment", 0.715),
    ("HHLSTYTKMLF [CHST8_Y251_R247H]", "FGFR3 (UniProt P22607)", "phosphorylation enrichment", 1.05),
    ("CGSLLYGLVHQ [PRKCG_Y122]", "FGFR3 (UniProt P22607)", "phosphorylation enrichment", 0.663),
]

----------
Molecular target: MERTK (UniProt Q12866)
Sequence (Q12866 whole entry, looked up): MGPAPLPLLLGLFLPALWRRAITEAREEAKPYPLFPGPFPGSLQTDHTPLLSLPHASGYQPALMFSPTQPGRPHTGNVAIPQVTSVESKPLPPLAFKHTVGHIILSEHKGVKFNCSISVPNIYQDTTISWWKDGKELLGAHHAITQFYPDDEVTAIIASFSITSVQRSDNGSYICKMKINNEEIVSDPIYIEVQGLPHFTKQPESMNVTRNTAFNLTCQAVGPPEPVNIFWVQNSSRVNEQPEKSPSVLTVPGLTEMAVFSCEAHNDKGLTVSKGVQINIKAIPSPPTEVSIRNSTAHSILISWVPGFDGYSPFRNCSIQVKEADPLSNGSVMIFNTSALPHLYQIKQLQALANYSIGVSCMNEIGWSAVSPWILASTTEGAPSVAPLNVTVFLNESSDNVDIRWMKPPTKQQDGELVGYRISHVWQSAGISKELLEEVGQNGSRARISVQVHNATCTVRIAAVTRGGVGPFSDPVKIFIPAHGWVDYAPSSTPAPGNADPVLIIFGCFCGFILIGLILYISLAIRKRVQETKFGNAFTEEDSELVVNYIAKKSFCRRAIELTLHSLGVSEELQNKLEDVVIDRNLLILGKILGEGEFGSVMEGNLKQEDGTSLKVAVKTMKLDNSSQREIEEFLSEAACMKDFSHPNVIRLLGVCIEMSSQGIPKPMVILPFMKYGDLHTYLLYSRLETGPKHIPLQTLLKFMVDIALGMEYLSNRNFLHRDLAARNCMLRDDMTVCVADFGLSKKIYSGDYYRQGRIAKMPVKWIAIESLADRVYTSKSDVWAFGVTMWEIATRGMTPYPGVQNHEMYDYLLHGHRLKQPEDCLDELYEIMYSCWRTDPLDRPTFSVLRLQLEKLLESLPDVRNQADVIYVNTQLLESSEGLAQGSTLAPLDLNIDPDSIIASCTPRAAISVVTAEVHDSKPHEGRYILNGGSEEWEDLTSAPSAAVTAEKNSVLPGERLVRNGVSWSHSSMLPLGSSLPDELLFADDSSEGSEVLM
Assay: phosphorylation enrichment, bacterial display (enrichment ratio); higher = better substrate or ligand; peptides without Tyr show the background

# SEQUENCE ENTRY, TARGET SYSTEM, phosphorylation enrichment
measured = [
    ("SAPDSYIGIGN [SLC38A4_Y27]", "MERTK (UniProt Q12866)", 0.59),
    ("LNPDGYEKAFE [CPXM2_Y427_YF]", "MERTK (UniProt Q12866)", 0.483),
    ("NFSKMYCNPDA [KNL1_Y489_A486S_YF]", "MERTK (UniProt Q12866)", 0.524),
    ("VDSNPYSRLVA [UBA5_Y53_M57V]", "MERTK (UniProt Q12866)", 0.445),
    ("KDDEKYLDVIR [MTM1_Y260]", "MERTK (UniProt Q12866)", 0.434),
    ("NTGDYCDLYGG [PTPN11_Y63_Y63C]", "MERTK (UniProt Q12866)", 0.838),
    ("RGGDSYGGPPR [RBMX_Y190_R187G]", "MERTK (UniProt Q12866)", 0.586),
    ("KRLAVYIDEEA [EPM2A_Y304_P301L]", "MERTK (UniProt Q12866)", 0.484),
    ("EGTATYAAAIL [JUP_Y644_V648I]", "MERTK (UniProt Q12866)", 0.534),
    ("QYPDVYAREEV [CRX_Y67]", "MERTK (UniProt Q12866)", 1.8),
]
